Target: human PKCθ full length enzyme (Homo sapiens, UniProt Q04759)
Sequence (Q04759 whole entry): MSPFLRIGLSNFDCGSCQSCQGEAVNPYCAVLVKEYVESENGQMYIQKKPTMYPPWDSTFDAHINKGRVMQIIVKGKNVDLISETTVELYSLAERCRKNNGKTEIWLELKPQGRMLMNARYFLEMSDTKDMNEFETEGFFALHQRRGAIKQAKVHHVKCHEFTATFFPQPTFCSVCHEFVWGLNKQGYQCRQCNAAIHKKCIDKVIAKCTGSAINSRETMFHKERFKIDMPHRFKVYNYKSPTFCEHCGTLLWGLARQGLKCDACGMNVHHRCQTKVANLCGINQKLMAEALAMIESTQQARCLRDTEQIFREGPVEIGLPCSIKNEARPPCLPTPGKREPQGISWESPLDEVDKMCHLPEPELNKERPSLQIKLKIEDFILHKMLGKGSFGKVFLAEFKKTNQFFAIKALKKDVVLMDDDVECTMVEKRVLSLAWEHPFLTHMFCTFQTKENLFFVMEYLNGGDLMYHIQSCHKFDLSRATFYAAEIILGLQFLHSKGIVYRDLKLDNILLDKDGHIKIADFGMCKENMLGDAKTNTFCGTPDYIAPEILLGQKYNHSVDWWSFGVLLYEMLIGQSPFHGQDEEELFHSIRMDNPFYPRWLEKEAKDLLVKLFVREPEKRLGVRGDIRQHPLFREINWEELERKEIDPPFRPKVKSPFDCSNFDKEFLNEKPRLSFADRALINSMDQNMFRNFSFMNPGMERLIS
// returns false unless IC50 is strictly below 200 nM, in which case true

Worked examples follow.
molecule=Cc1c(Nc2c(C#N)cnc3sc(-c4cccc(C(=O)N5CCCC5)c4)cc23)ccc2[nH]ccc12 labelvalue=true
molecule=N#Cc1cnc2sc(-c3cccc(CN4CCC(CCO)CC4)c3)cc2c1Nc1ccc2[nH]ccc2c1 labelvalue=true
molecule=Cc1c(Nc2c(C#N)cnc3sc(-c4ccccc4N)cc23)ccc2[nH]ccc12 labelvalue=false
molecule=Cc1cc2cc(Nc3c(C#N)cnc4sc(-c5ccccc5)cc34)ccc2[nH]1 labelvalue=false
molecule=Cc1c(Nc2c(C#N)cnc3sc(-c4cc(CN(C)C)ccc4F)cc23)ccc2[nH]ccc12 labelvalue=true
molecule=Cc1c(Nc2c(C#N)cnc3sc(/C=C/CN4CCCC4)cc23)ccc2[nH]ccc12 labelvalue=true
molecule=Cc1c(Nc2c(C#N)cnc3sc(-c4cc(C=O)cc(OC(C)C)c4)cc23)ccc2[nH]ccc12 labelvalue=true
molecule=Cc1c(Nc2c(C#N)cnc3sc(/C=C/C(=O)N(C)C)cc23)ccc2[nH]ccc12 labelvalue=true
molecule=Cc1c(Nc2c(C#N)cnc3sc(-c4cccc(C(=O)NCCN(C)C)c4)c(C)c23)ccc2[nH]ccc12 labelvalue=true
molecule=Cc1c(Nc2c(C#N)cnc3sc(C(=O)Nc4ccccc4)cc23)ccc2[nH]ccc12 labelvalue=true

In: Lab note: IC50 threshold 200 nM. Does this compound come in strictly under it? Cc1c(Nc2c(C#N)cnc3sc(-c4ccccc4OC[C@H](C)O)cc23)ccc2[nH]ccc12
Out: true

In: Lab note: IC50 threshold 200 nM. Does this compound come in strictly under it? COc1ccc(C(=O)N(C)C)cc1-c1cc2c(Nc3ccc4[nH]ccc4c3C)c(C#N)cnc2s1
Out: true

In: Lab note: IC50 threshold 200 nM. Does this compound come in strictly under it? Cc1c(Nc2c(C#N)cnc3sc(-c4ccc(N(C)C)nc4)cc23)ccc2[nH]ccc12
Out: true

In: Lab note: IC50 threshold 200 nM. Does this compound come in strictly under it? Cc1c(Nc2c(C#N)cnc3sc(-c4ccccc4CNCCO)cc23)ccc2[nH]ccc12
Out: true

In: Lab note: IC50 threshold 200 nM. Does this compound come in strictly under it? CCN(CC)Cc1cccc(-c2cc3c(Nc4ccc5[nH]ccc5c4)c(C#N)cnc3s2)c1
Out: false

----------
# collection of pIC50 values tested on PKCθ (Homo sapiens)
Scale explanation: pIC50 corresponds to minus log10 of a concentration expressed in moles per litre.

compound="N#Cc1cnc2sc(-c3ccccc3)cc2c1Nc1ccc2[nH]ccc2c1 [Compound 107]" reported=7.10

In: Would you kindly share the measured pIC50 for CN(C)Cc1ccc(-c2cc3c(Nc4ccc5[nH]ccc5c4)c(C#N)cnc3s2)nc1 [Compound 204] ?
Out: 6.96

----------
Listed here are molecules together with their documented pIC50.
Target: human PKCθ full length enzyme (Homo sapiens, UniProt Q04759)
Scale explanation: pIC50 corresponds to minus log10 of a concentration expressed in moles per litre.

molecule="Cc1c(Nc2c(C#N)cnc3sc(-c4ccc(OC[C@H](O)CO)cc4)cc23)ccc2[nH]ccc12 [Compound 486]" targetdesc="human PKCθ full length enzyme (Homo sapiens, UniProt Q04759)" parametermeasured=pIC50 reported=7.15
molecule="COc1ccc(C=O)c(-c2cc3c(Nc4ccc5[nH]ccc5c4C)c(C#N)cnc3s2)c1 [Compound 514]" targetdesc="human PKCθ full length enzyme (Homo sapiens, UniProt Q04759)" parametermeasured=pIC50 reported=7.15
molecule="COCCN(C)Cc1cccc(-c2cc3c(Nc4ccc5[nH]ccc5c4)c(C#N)cnc3s2)c1 [Compound 162]" targetdesc="human PKCθ full length enzyme (Homo sapiens, UniProt Q04759)" parametermeasured=pIC50 reported=6.57

In: Would you kindly share the measured pIC50 for CON(C)C(=O)c1cccc(-c2cc3c(Nc4ccc5[nH]ccc5c4)c(C#N)cnc3s2)c1 [Compound 344] ?
Out: 6.09

In: Would you kindly share the measured pIC50 for N#Cc1cnc2sc(-c3cccc(CN4CCOCC4)c3)cc2c1Nc1ccc2[nH]ccc2c1 [Compound 146] ?
Out: 6.26

In: Would you kindly share the measured pIC50 for COc1ccc(-c2cc3c(Nc4ccc5[nH]ccc5c4)c(C#N)cnc3s2)cc1C=O [Compound 337] ?
Out: 6.87

In: Would you kindly share the measured pIC50 for N#Cc1cnc2sc(C(=O)N3CCCC3)cc2c1Nc1cccc2[nH]ccc12 [Compound 264] ?
Out: 6.17
